# assayed_target: UniProt O14842
# assay_text: Agonist activity at human GPR40/FFA1 expressed in CHO cells assessed as increase in calcium flux at 1 uM by Fluo-8 AM dye based FLIPR method
# Assay type: functional, cell-based
Item-by-item account of EC50

[
  {
    "compound": "Cc1ccccc1NC(=O)c1nnc(C(=O)Nc2ccc(OCC(=O)O)cc2)s1",
    "EC50": "> 10 µM"
  },
  {
    "compound": "O=C(O)CCc1ccc(NC(=O)c2nnc(Cc3ccc(Cl)cc3)s2)cc1",
    "EC50": "2.39 µM"
  },
  {
    "compound": "Cc1ccc(C)c(OCc2nnc(C(=O)Nc3ccc(CCC(=O)O)cc3)s2)c1",
    "EC50": "1.53 µM"
  },
  {
    "compound": "COc1cccc(NC(=O)c2nnc(C(=O)Nc3ccc(OCC(=O)O)cc3)s2)c1",
    "EC50": "> 10 µM"
  }
]

stdin: I am curious: what EC50 value has been reported for `Cc1cccc(NC(=O)c2nnc(C(=O)Nc3ccc(OCC(=O)O)cc3)s2)c1` ?
stdout: > 10 µM

stdin: Bench note: what EC50 did `Cc1ccccc1OCc1nnc(C(=O)Nc2ccc(CCC(=O)O)cc2)s1` show?
stdout: 1.52 µM

stdin: Requested read-out: EC50. Entry: `O=C(O)COc1ccc(NC(=O)c2nnc(C(=O)Nc3ccc(Cl)cc3)s2)cc1`
stdout: > 10 µM

stdin: For the compound shown here, `CCOC(=O)c1ccc(NC(=O)c2nnc(C(=O)Nc3ccc(OCC(=O)O)cc3)s2)cc1` , give the reported EC50.
stdout: > 10 µM

stdin: Given the compound `Cc1ccc(OCc2nnc(C(=O)Nc3ccc(CCC(=O)O)cc3)s2)c(C)c1` , what is its reported EC50?
stdout: 2.54 µM

stdin: # EC50 lookup, item `Cc1nnc(NC(=O)c2nnc(C(=O)Nc3ccc(OCC(=O)O)cc3)s2)s1`
stdout: > 10 µM

stdin: Report EC50 for `O=C(O)COc1ccc(NC(=O)c2nnc(C(=O)Nc3ccccc3F)s2)cc1` please.
stdout: > 10 µM

stdin: # get_value(readout='EC50', item= O=C(O)CCc1ccc(NC(=O)c2nnc(CC(c3ccccc3)c3ccc4c(c3)OCO4)s2)cc1 (configuration not stated) )
stdout: 4.12 µM

stdin: Item `O=C(O)CCc1ccc(NC(=O)c2nnc(Cc3cccc(Cl)c3)s2)cc1` has what recorded EC50?
stdout: 2.39 µM

stdin: Form field: reported EC50 of `CCc1ccc(OCc2nnc(C(=O)Nc3ccc(CCC(=O)O)cc3)s2)cc1`
stdout: 1.17 µM

stdin: Any idea what EC50 was measured for `COc1ccc(C)cc1NC(=O)c1nnc(C(=O)Nc2ccc(OCC(=O)O)cc2)s1` ?
stdout: > 10 µM

----------
# assayed_target: Free fatty acid receptor 2 (Homo sapiens)
# Sequence (whole entry): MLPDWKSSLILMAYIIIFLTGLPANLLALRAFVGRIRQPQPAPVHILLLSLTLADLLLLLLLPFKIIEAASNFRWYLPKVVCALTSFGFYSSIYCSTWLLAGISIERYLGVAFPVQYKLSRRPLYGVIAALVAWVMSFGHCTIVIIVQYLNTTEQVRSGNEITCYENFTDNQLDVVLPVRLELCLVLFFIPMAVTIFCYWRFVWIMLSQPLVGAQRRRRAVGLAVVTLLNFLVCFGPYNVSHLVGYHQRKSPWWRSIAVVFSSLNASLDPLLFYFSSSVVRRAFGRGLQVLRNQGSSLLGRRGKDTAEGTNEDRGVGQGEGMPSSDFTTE
# assay_text: Agonist activity at GPR43/FFA2 (unknown origin) expressed in CHO cells assessed as increase in calcium flux at 10 uM by Fluo-8 AM dye based FLIPR method
# Assay type: functional, cell-based
Active and inactive are the calls of the source. The calls are words filed in the database; no cut-off is given here.
experimental_endpoint: Activity

[
  {
    "compound": "Cc1ccc(OCc2nnc(C(=O)Nc3ccc(CCC(=O)O)cc3)s2)cc1",
    "Activity": "inactive"
  },
  {
    "compound": "COc1ccc(OCc2nnc(C(=O)Nc3ccc(CCC(=O)O)cc3)s2)cc1",
    "Activity": "inactive"
  },
  {
    "compound": "O=C(O)CCc1ccc(NC(=O)c2nnc(COc3cccc(Cl)c3)s2)cc1",
    "Activity": "inactive"
  },
  {
    "compound": "Cc1ccc(OCc2nnc(C(=O)Nc3ccc(CCC(=O)O)cc3)s2)c(C)c1",
    "Activity": "inactive"
  },
  {
    "compound": "COc1ccc(C(Cc2nnc(C(=O)Nc3ccc(CCC(=O)O)cc3)s2)c2ccccc2)cc1 (stereo not given)",
    "Activity": "inactive"
  },
  {
    "compound": "O=C(O)CCc1ccc(NC(=O)c2nnc(COc3cccc(C(F)(F)F)c3)s2)cc1",
    "Activity": "inactive"
  },
  {
    "compound": "O=C(O)CCc1ccc(NC(=O)c2nnc(Cc3ccccc3)s2)cc1",
    "Activity": "inactive"
  },
  {
    "compound": "O=C(O)CCc1ccc(NC(=O)c2nnc(CC(c3ccccc3)c3ccccc3F)s2)cc1 (stereo not given)",
    "Activity": "inactive"
  },
  {
    "compound": "Cc1ccccc1OCc1nnc(C(=O)Nc2ccc(CCC(=O)O)cc2)s1",
    "Activity": "inactive"
  }
]

stdin: // map `O=C(O)CCc1ccc(NC(=O)c2nnc(COc3ccc4c(c3)CCC4)s2)cc1` to recorded Activity (system: Free fatty acid receptor 2 (Homo sapiens))
stdout: inactive

----------
# assayed_target: Free fatty acid receptor 1 (Homo sapiens, UniProt O14842)
# Sequence (O14842 whole entry): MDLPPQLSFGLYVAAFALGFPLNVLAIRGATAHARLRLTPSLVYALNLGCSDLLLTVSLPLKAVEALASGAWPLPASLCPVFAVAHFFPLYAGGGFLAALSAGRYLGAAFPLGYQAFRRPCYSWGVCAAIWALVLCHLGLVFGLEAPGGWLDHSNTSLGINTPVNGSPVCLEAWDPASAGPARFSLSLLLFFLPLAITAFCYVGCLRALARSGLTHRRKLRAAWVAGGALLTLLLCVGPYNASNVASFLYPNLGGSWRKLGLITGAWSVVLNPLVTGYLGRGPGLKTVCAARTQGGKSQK
# assay_text: Agonist activity at human GPR40/FFA1 expressed in CHO cells assessed as increase in calcium flux at 1 uM by Fluo-8 AM dye based FLIPR method relative to 10 uM GW9508
# Assay type: functional, cell-based
experimental_endpoint: Activity
Please give the number followed by its unit.

Solved entries (count: 4):
[
  {
    "smiles_string": "O=C(O)CCc1ccc(NC(=O)c2nnc(COc3ccc4c(c3)CCC4)s2)cc1",
    "assayed_target": "Free fatty acid receptor 1 (Homo sapiens, UniProt O14842)",
    "Activity": "91.2%"
  },
  {
    "smiles_string": "O=C(O)COc1ccc(NC(=O)c2nnc(C(=O)Nc3ccccc3)s2)cc1",
    "assayed_target": "Free fatty acid receptor 1 (Homo sapiens, UniProt O14842)",
    "Activity": "7.8%"
  },
  {
    "smiles_string": "Cc1ccc(NC(=O)c2nnc(C(=O)Nc3ccc(OCC(=O)O)cc3)s2)cc1C",
    "assayed_target": "Free fatty acid receptor 1 (Homo sapiens, UniProt O14842)",
    "Activity": "2.8%"
  },
  {
    "smiles_string": "O=C(O)CCc1ccc(NC(=O)c2nnc(COc3cccc(Cl)c3)s2)cc1",
    "assayed_target": "Free fatty acid receptor 1 (Homo sapiens, UniProt O14842)",
    "Activity": "82.9%"
  }
]

We now examine a further molecule.
stdin: # lookup: Activity of `O=C(O)CCc1ccc(NC(=O)c2nnc(Cc3cccc(F)c3)s2)cc1`
stdout: 60.3%

----------
# assayed_target: Free fatty acid receptor 1 (Homo sapiens)
# assay_text: Agonist activity at human GPR40/FFA1 expressed in CHO cells assessed as increase in calcium flux at 1 uM by Fluo-8 AM dye based FLIPR method relative to 10 uM GW9508
# Format: functional, cell-based
Labels assigned by Activity range: low-valued: < 7%; mid-valued: ≥ 7% and < 70%; high-valued: ≥ 70%

Solved cases below.
[
  {
    "compound": "O=C(O)COc1ccc(NC(=O)c2nnc(C(=O)Nc3ccc(Cl)cc3)s2)cc1",
    "assayed_target": "Free fatty acid receptor 1 (Homo sapiens)",
    "category": "low-valued"
  },
  {
    "compound": "O=C(O)COc1ccc(NC(=O)c2nnc(C(=O)Nc3ccccc3F)s2)cc1",
    "assayed_target": "Free fatty acid receptor 1 (Homo sapiens)",
    "category": "low-valued"
  },
  {
    "compound": "Cc1ccc(OCc2nnc(C(=O)Nc3ccc(CCC(=O)O)cc3)s2)cc1C",
    "assayed_target": "Free fatty acid receptor 1 (Homo sapiens)",
    "category": "mid-valued"
  },
  {
    "compound": "O=C(O)CCc1ccc(NC(=O)c2nnc(CC(c3ccccc3)c3ccc(Cl)cc3)s2)cc1 (stereo not given)",
    "assayed_target": "Free fatty acid receptor 1 (Homo sapiens)",
    "category": "high-valued"
  },
  {
    "compound": "Cc1ccc(OCc2nnc(C(=O)Nc3ccc(CCC(=O)O)cc3)s2)cc1",
    "assayed_target": "Free fatty acid receptor 1 (Homo sapiens)",
    "category": "high-valued"
  },
  {
    "compound": "Cc1ccccc1NC(=O)c1nnc(C(=O)Nc2ccc(OCC(=O)O)cc2)s1",
    "assayed_target": "Free fatty acid receptor 1 (Homo sapiens)",
    "category": "low-valued"
  },
  {
    "compound": "Cc1ccc(OCc2nnc(C(=O)Nc3ccc(CCC(=O)O)cc3)s2)c(C)c1",
    "assayed_target": "Free fatty acid receptor 1 (Homo sapiens)",
    "category": "high-valued"
  },
  {
    "compound": "O=C(O)COc1ccc(NC(=O)c2nnc(C(=O)Nc3ccc(F)c(F)c3)s2)cc1",
    "assayed_target": "Free fatty acid receptor 1 (Homo sapiens)",
    "category": "low-valued"
  },
  {
    "compound": "O=C(O)CCc1ccc(NC(=O)c2nnc(Cc3ccc(Cl)cc3)s2)cc1",
    "assayed_target": "Free fatty acid receptor 1 (Homo sapiens)",
    "category": "high-valued"
  }
]

From here, focus on the item given below.
stdin: Band assignment needed for `O=C(O)CCc1ccc(NC(=O)c2nnc(COc3ccc(F)cc3)s2)cc1` please.
stdout: mid-valued

# credit: ChEMBL document CHEMBL4190352
